method.notes: probe aNOTCH3 binding on compound microarray – biochemical, small-molecule microarray, 635/667 nm fluorescence, primary screen (AID 1120);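 further: probe is a biotin-tagged antibody raised against NOTCH3 rather than NOTCH3 protein; score merges spot fluorescence near 667 nm with spot signal to noise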
particulars: higher = more signal
Use 0.2 as the dividing line for composite z-score, with the line itself on the Criterion met side and lower values as Criterion not met.

Request: Reported composite z-score reaches at least 0.2 for O=C1O[C@H](c2ccccc2)[C@H](c2ccccc2)N2[C@H]1[C@@H](C(=O)N1CCCCCCC1)[C@]1(C(=O)Nc3ccccc31)[C@H]2c1ccc(O)cc1 ?
Result: Criterion met

Request: Reported composite z-score reaches at least 0.2 for CC1(C)[C@@H]2CC(C(O)C3C=CC4C(=O)N(c5ccccc5)C(=O)C4N3Nc3ccccc3F)=C[C@@H]1C2 (some centres not stated) ?
Result: Criterion met

Request: Reported composite z-score reaches at least 0.2 for CC(C)(C)N1CC=CC23O[C@@H]4C=CCCOC(=O)C4[C@H]2C(=O)N(CCCO)[C@@H]3C1=O (some centres not stated) ?
Result: Criterion not met

Request: Reported composite z-score reaches at least 0.2 for NCCCCCCNC(=O)[C@H]1C[C@H]2C(=O)N3CCC[C@H]3C(=O)N2[C@H]1c1ccc(O)cc1 ?
Result: Criterion not met

Request: Reported composite z-score reaches at least 0.2 for COCCOC(=O)N1C(=O)[C@@]2(c3cc(C#CCCO)ccc31)[C@H](C(=O)NC[C@H](O)c1ccccc1)[C@H]1C(=O)O[C@H](c3ccccc3)[C@H](c3ccccc3)N1[C@@H]2c1ccccc1OCCO ?
Result: Criterion met

Request: Reported composite z-score reaches at least 0.2 for O=C1O[C@H](c2ccccc2)[C@H](c2ccccc2)N2[C@H]1[C@@H](C(=O)N1CCN(c3ncccn3)CC1)[C@]1(C(=O)Nc3ccc(C#CCCO)cc31)[C@H]2c1ccc(OCCO)cc1 ?
Result: Criterion met

The origin of these recorded values is PubChem BioAssay.
